test system: SF-295 CNS; experiment: NCI-60 one-dose screen, 48 h; settings: 10 µM unless noted
The panel holds about 83,000 compounds, 20% with a hit somewhere; the sample as a whole holds those more often. The source made the active and inactive calls. The calls were made as follows: active = growth percent below 10; inactive = the rest.
Select the correct class. Options are active, inactive and nothing else.

The examples below pair each entry with its known result.
CCOC(=O)c1sc(-c2ccc(OS(=O)(=O)c3ccccc3[N+](=O)[O-])c(C=O)c2)nc1C	inactive
O=c1oc2ccc(Br)cc2c(=O)n1-c1ccc(Br)cc1F	active
O=C(Nc1ccc(Cl)cc1)N1CCN(c2ccc3nncn3n2)CC1	active
CNCCNc1nc2ccccc2c2c(=O)c3cccc(OC)c3sc12	inactive
COc1ccc(CSc2nnc(SCC(=O)Nc3ccc(Cl)cc3)s2)cc1	active

-- ask Assay outcome for COC(=O)C1=C(C)NC(C)=C(C(=O)OC)C(N2C(=O)CCC2=O)C1 (stereo not given) : what was it?
-- reply inactive

-- ask Could you kindly confirm the outcome this assay logged for COC(=O)c1ccc(NC(=O)CSc2nc3ccccc3c(=O)n2-c2ccccc2)cc1 ?
-- reply inactive
